Overview of reported half-life at 2 μM across a group of molecules:
assay: Intestinal S9 Assay (human GI S9); type: in vitro ADME; conditions: human, 1.0 mg/mL S9 protein, TRIS pH 7.4, read-out: Human GI S9 T½
Report the value in h with no unit label.

# structure, half-life at 2 μM (h)
data = [
    ("COC(=O)N[C@H](C(=O)N[C@@H](Cc1ccc(C#Cc2cnc(N3CC4CCC(C3)N4C3COC3)nc2)cc1)[C@H](CN(Cc1c(F)cc(-c2ccn(C(F)F)n2)cc1F)NC(=O)[C@@H](NC(=O)OC)C(C)(C)C(F)(F)F)OC(=O)CC(C)(C)c1c(CC(=O)N2CC[C@@H]2C(=O)O)cc(C)cc1OP(=O)(O)O)C(C)(C)C(F)(F)F", 8.93),
]

Could you tell me which half-life at 2 μM is on file for COC(=O)N[C@H](C(=O)N[C@@H](Cc1ccc(C#Cc2cnc(N3CC4CCC(C3)N4C3COC3)nc2)cc1)[C@H](CN(Cc1c(F)cc(-c2ccn(C(F)F)n2)cc1F)NC(=O)[C@@H](NC(=O)OC)C(C)(C)C(F)(F)F)OC(=O)CC(C)(C)c1c(CC(=O)NC23CC4CC(C2)CC(C(=O)O)(C4)C3)cc(C)cc1OP(=O)(O)O)C(C)(C)C(F)(F)F ? 7.21

Could you tell me which half-life at 2 μM is on file for COC(=O)N[C@H](C(=O)N[C@@H](Cc1ccc(C#Cc2cnc(N3CC4CCC(C3)N4C3COC3)nc2)cc1)[C@H](CN(Cc1c(F)cc(-c2ccn(C(F)F)n2)cc1F)NC(=O)[C@@H](NC(=O)OC)C(C)(C)C(F)(F)F)OC(=O)CC(C)(C)c1c(CC(=O)Nc2cccc(C(=O)O)c2)cc(C)cc1OP(=O)(O)O)C(C)(C)C(F)(F)F ? 10.1

Could you tell me which half-life at 2 μM is on file for COC(=O)N[C@H](C(=O)N[C@@H](Cc1ccc(C#Cc2cnc(N3CC4CCC(C3)N4C3COC3)nc2)cc1)[C@H](CN(Cc1c(F)cc(-c2ccn(C(F)F)n2)cc1F)NC(=O)[C@@H](NC(=O)OC)C(C)(C)C(F)(F)F)OC(=O)CC(C)(C)c1c(CC(=O)N[C@@H](Cc2ccc(C(=O)O)cc2)C(=O)O)cc(C)cc1OP(=O)(O)O)C(C)(C)C(F)(F)F ? 6.23

Could you tell me which half-life at 2 μM is on file for COC(=O)N[C@H](C(=O)N[C@@H](Cc1ccc(C#Cc2cnc(N3CC4CCC(C3)N4C3COC3)nc2)cc1)[C@H](CN(Cc1c(F)cc(-c2ccn(C(F)F)n2)cc1F)NC(=O)[C@@H](NC(=O)OC)C(C)(C)C(F)(F)F)OC(=O)CC(C)(C)c1c(CC(=O)N2CCC[C@@H]2C(=O)O)cc(C)cc1OP(=O)(O)O)C(C)(C)C(F)(F)F ? 10.3

Could you tell me which half-life at 2 μM is on file for COC(=O)N[C@H](C(=O)N[C@@H](Cc1ccc(C#Cc2cnc(N3CC4CCC(C3)N4C3COC3)nc2)cc1)[C@H](CN(Cc1c(F)cc(-c2ccn(C(F)F)n2)cc1F)NC(=O)[C@@H](NC(=O)OC)C(C)(C)C(F)(F)F)OC(=O)CC(C)(C)c1c(CC(=O)N2CC(C)(C)C[C@H]2C(=O)O)cc(C)cc1OP(=O)(O)O)C(C)(C)C(F)(F)F ? 11.7

Could you tell me which half-life at 2 μM is on file for COC(=O)N[C@H](C(=O)N[C@@H](Cc1ccc(C#Cc2cnc(N3CC4CCC(C3)N4C3COC3)nc2)cc1)[C@H](CN(Cc1c(F)cc(-c2ccn(C(F)F)n2)cc1F)NC(=O)[C@@H](NC(=O)OC)C(C)(C)C(F)(F)F)OC(=O)CC(C)(C)c1c(CC(=O)N2CCC[C@H]2C(=O)O)cc(C)cc1OP(=O)(O)O)C(C)(C)C(F)(F)F ? 10.2

Could you tell me which half-life at 2 μM is on file for COC(=O)N[C@H](C(=O)N[C@@H](Cc1ccc(C#Cc2cnc(N3CC4CCC(C3)N4C3COC3)nc2)cc1)[C@H](CN(Cc1c(F)cc(-c2ccn(C(F)F)n2)cc1F)NC(=O)[C@@H](NC(=O)OC)C(C)(C)C(F)(F)F)OC(=O)CC(C)(C)c1c(CC(=O)O)cc(C)cc1OP(=O)(O)O)C(C)(C)C(F)(F)F ? 7.74

Could you tell me which half-life at 2 μM is on file for COC(=O)N[C@H](C(=O)N[C@@H](Cc1ccc(C#Cc2cnc(N3CC4CCC(C3)N4C3COC3)nc2)cc1)[C@H](CN(Cc1c(F)cc(-c2ccn(C(F)F)n2)cc1F)NC(=O)[C@@H](NC(=O)OC)C(C)(C)C(F)(F)F)OC(=O)CC(C)(C)c1c(CC(=O)Nc2cc(C(=O)O)cc(S(C)(=O)=O)c2)cc(C)cc1OP(=O)(O)O)C(C)(C)C(F)(F)F ? 4.48

Could you tell me which half-life at 2 μM is on file for COC(=O)N[C@H](C(=O)N[C@@H](Cc1ccc(C#Cc2cnc(N3CC4CCC(C3)N4C3COC3)nc2)cc1)[C@H](CN(Cc1c(F)cc(-c2ccn(C(F)F)n2)cc1F)NC(=O)[C@@H](NC(=O)OC)C(C)(C)C(F)(F)F)OC(=O)CC(C)(C)c1c(CC(=O)N2C[C@H]3[C@@H]([C@H]2C(=O)O)C3(C)C)cc(C)cc1OP(=O)(O)O)C(C)(C)C(F)(F)F ? 6.39

Could you tell me which half-life at 2 μM is on file for COC(=O)N[C@H](C(=O)N[C@@H](Cc1ccc(C#Cc2cnc(N3CC4CCC(C3)N4C3COC3)nc2)cc1)[C@H](CN(Cc1c(F)cc(-c2ccn(C(F)F)n2)cc1F)NC(=O)[C@@H](NC(=O)OC)C(C)(C)C(F)(F)F)OC(=O)CC(C)(C)c1c(CC(=O)N[C@@H](CCC(=O)O)C(=O)O)cccc1OP(=O)(O)O)C(C)(C)C(F)(F)F ? 2.57

Could you tell me which half-life at 2 μM is on file for COC(=O)N[C@H](C(=O)N[C@@H](Cc1ccc(C#Cc2cnc(N3CC4CCC(C3)N4C3COC3)nc2)cc1)[C@H](CN(Cc1c(F)cc(-c2ccn(C(F)F)n2)cc1F)NC(=O)[C@@H](NC(=O)OC)C(C)(C)C(F)(F)F)OC(=O)CC(C)(C)c1c(CC(=O)N[C@@H](CCS(=O)(=O)O)C(=O)O)cccc1OP(=O)(O)O)C(C)(C)C(F)(F)F ? 4.76
